Sourced from patent US9663508B2

target: human Nav1.7 (Homo sapiens (Human), UniProt Q15858); test: Nav 1.7 in vitro PatchXpress (PX) assay; type: cell-based
Sequence (Q15858 whole entry): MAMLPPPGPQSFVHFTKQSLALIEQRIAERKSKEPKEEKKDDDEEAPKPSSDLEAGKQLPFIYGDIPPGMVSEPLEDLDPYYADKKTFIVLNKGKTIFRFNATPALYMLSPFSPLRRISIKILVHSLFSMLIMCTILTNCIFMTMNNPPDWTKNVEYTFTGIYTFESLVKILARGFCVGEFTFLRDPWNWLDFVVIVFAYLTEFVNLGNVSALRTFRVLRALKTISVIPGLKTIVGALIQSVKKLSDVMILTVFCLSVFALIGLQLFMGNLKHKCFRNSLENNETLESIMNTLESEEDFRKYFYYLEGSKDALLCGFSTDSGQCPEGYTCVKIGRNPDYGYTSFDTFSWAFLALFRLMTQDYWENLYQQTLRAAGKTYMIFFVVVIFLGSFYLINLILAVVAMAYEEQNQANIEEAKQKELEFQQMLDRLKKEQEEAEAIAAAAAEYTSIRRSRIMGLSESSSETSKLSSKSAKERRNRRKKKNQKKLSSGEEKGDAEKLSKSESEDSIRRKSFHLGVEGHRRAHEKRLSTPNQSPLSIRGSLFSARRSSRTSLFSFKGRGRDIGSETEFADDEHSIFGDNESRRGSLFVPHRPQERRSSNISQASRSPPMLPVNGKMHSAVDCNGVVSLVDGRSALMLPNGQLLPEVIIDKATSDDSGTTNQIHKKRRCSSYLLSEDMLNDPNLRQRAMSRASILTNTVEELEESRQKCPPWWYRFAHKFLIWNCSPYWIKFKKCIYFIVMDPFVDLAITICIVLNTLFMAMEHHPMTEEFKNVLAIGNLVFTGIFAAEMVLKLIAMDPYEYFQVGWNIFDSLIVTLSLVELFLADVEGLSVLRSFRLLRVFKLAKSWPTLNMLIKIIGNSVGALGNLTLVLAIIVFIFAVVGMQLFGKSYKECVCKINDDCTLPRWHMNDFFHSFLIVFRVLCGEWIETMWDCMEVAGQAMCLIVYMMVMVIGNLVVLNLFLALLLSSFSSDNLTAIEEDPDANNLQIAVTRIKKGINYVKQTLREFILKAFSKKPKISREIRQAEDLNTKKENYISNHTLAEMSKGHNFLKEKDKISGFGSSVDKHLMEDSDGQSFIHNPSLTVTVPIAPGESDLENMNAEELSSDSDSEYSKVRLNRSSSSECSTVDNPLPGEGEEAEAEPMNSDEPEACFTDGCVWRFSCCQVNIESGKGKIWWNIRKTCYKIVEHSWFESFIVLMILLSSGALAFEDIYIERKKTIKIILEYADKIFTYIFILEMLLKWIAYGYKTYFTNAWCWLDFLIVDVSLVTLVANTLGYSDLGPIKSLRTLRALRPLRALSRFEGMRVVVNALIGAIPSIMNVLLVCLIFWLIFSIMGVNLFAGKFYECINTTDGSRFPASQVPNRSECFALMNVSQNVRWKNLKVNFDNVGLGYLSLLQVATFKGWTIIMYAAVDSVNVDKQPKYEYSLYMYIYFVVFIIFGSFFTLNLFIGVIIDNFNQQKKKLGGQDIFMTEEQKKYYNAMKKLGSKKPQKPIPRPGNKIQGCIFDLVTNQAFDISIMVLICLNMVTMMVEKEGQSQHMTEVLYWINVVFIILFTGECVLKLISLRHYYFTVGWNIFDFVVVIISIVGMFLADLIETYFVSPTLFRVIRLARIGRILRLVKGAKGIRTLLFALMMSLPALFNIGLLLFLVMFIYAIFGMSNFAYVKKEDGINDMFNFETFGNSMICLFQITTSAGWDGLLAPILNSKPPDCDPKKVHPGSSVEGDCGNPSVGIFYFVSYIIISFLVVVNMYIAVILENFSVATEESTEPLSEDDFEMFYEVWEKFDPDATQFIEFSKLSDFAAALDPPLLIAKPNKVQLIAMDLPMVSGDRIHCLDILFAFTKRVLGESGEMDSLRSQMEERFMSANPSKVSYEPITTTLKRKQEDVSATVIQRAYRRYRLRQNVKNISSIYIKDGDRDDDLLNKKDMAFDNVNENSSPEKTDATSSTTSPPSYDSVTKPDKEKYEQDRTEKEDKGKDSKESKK
Measured Attribute: IC50

[[record]]
compound = "Cc1cc(C(=O)NS(C)(=O)=O)c(F)cc1-c1cnc(OCc2nc3ccccc3s2)c(Cl)c1 [Example 636]"
recorded_result = "55.7 nM"

[[record]]
compound = "C[C@H](Oc1ncc(-c2ccc(C(=O)NS(C)(=O)=O)cc2OC(F)F)cc1Cl)c1ccccc1 [Example 457]"
recorded_result = "80 nM"

[[record]]
compound = "Cc1cc(C(=O)NS(C)(=O)=O)c(F)cc1-c1cnc(Oc2cccc(C)c2F)c(Cl)c1 [Example 618]"
recorded_result = "95 nM"

[[record]]
compound = "Cc1ccc(Oc2ncc(-c3ccc(C(=O)NS(C)(=O)=O)cc3OC(F)F)cc2Cl)cc1C [Example 459]"
recorded_result = "95 nM"


###

Recorded IC50 values for a group of molecules are listed next.
target: UniProt:Q14524; assay: Nav 1.5 IonWorks Quattro (IWQ) in vitro assay; type: cell-based; conditions: in-vitro Nav 1.5 IWQ data; read-out: NAV 1.5 IWQ (IC50)
Sequence (Q14524 whole entry): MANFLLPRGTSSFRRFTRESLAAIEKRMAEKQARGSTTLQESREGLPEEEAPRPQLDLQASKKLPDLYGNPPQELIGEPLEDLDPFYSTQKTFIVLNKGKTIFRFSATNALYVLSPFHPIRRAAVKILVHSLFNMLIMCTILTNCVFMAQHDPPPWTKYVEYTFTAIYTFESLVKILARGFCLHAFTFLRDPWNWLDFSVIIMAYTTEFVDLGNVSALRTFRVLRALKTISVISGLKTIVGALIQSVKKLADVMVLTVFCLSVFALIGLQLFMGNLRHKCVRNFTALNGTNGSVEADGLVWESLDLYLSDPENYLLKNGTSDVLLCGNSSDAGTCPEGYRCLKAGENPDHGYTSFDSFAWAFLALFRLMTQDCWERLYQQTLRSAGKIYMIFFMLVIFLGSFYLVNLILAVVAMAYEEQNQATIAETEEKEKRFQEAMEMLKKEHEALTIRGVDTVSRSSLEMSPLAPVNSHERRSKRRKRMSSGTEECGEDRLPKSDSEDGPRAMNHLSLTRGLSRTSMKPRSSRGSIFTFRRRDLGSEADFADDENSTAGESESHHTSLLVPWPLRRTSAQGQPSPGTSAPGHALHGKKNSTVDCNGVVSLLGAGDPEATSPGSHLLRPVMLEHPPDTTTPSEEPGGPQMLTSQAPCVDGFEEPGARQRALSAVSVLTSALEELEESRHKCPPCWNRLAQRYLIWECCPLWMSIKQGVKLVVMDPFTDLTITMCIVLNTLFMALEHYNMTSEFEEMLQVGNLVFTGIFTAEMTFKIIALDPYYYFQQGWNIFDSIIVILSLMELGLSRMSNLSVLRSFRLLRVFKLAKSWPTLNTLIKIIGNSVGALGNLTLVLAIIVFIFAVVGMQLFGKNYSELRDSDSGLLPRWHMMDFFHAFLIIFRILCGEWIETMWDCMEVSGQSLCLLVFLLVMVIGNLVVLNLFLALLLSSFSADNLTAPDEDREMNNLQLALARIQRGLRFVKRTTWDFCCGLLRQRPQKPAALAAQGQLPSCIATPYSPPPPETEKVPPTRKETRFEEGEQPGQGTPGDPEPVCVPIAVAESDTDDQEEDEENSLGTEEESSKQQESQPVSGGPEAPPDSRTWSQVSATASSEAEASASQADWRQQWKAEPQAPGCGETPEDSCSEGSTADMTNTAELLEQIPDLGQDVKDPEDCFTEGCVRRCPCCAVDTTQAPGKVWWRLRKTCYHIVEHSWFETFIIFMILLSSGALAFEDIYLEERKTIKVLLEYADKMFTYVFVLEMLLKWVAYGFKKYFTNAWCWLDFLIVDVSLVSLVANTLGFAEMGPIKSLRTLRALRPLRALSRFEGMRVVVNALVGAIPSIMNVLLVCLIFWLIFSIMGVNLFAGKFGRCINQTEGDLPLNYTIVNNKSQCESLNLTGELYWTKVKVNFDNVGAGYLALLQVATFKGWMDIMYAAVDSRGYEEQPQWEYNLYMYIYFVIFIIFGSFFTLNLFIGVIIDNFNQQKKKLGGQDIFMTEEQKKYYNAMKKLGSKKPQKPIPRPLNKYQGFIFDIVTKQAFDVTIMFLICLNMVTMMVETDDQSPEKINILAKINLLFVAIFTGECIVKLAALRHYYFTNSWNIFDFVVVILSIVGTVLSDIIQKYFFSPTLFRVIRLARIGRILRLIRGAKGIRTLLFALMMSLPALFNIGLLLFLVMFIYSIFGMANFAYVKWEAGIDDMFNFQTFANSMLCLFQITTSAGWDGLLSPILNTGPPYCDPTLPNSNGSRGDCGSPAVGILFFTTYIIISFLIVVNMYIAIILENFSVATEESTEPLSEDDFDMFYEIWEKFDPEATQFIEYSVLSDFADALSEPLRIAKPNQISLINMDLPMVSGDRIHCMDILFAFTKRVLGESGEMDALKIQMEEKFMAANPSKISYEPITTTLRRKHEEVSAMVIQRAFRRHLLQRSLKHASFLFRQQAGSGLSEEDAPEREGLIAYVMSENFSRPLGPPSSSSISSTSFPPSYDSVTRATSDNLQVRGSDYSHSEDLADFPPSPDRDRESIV
Measured Attribute: IC50 (nM)

[[record]]
molecule = "COc1cc(C(=O)NS(C)(=O)=O)c(F)cc1-c1cnc(OCc2nc3ccccc3s2)c(Cl)c1 [Example 708]"
censoring_operator = ">"
recorded_result = 3000

[[record]]
molecule = "Cc1cc(C(=O)NS(=O)(=O)C2CC2)c(F)cc1-c1cnc(Oc2c(C)cc(Cl)cc2Cl)c(Cl)c1"
censoring_operator = "="
recorded_result = 485

[[record]]
molecule = "Cc1cc(C(=O)NS(C)(=O)=O)ccc1-c1cnc(Oc2c(C)cc(Cl)cc2Cl)c(Cl)c1"
censoring_operator = ">"
recorded_result = 4900

[[record]]
molecule = "CCS(=O)(=O)NC(=O)c1ccc(-c2cnc(Oc3c(C)cc(Cl)cc3Cl)c(Cl)c2)c(OC)c1"
censoring_operator = "="
recorded_result = 1380

[[record]]
molecule = "CCS(=O)(=O)NC(=O)c1cc(C)c(-c2cnc(Oc3c(C)cc(Cl)cc3Cl)c(Cl)c2)cc1F"
censoring_operator = "="
recorded_result = 1250

[[record]]
molecule = "COc1cc(C(=O)NS(C)(=O)=O)ccc1-c1cnc(COc2ccc(Cl)c(Cl)c2)c(Cl)c1"
censoring_operator = ">"
recorded_result = 3000

[[record]]
molecule = "Cc1cc(C(=O)NS(C)(=O)=O)c(F)cc1-c1cnc(O[C@@H](C)c2nc3ccccc3s2)c(Cl)c1"
censoring_operator = ">"
recorded_result = 3000


###

Listing of recorded IC50 by entry.
biological target: human Nav1.7 (Homo sapiens (Human), UniProt Q15858); assay: Nav 1.7 in vitro PatchXpress (PX) assay; assay type: cell-based; conditions: in-vitro Nav 1.7 PX data
Measured Attribute: IC50 (nM)

[[record]]
smiles_notation = "COc1cc(C(=O)NS(C)(=O)=O)c(F)cc1-c1cnc(Oc2cc(F)ccc2F)c(Cl)c1"
measured_attribute = "IC50"
recorded_result = 130

[[record]]
smiles_notation = "COc1cc(C(=O)NS(C)(=O)=O)c(F)cc1-c1cnc(O[C@H](C)c2ccc(F)cc2Cl)c(Cl)c1"
measured_attribute = "IC50"
recorded_result = 82.1

[[record]]
smiles_notation = "Cc1cc(Cl)cc(Cl)c1Oc1ncc(-c2ccc(C(=O)NS(C)(=O)=O)cc2Cl)cc1Cl"
measured_attribute = "IC50"
recorded_result = 34.5

[[record]]
smiles_notation = "CC[C@H](Oc1ncc(-c2cc(F)c(C(=O)NS(C)(=O)=O)cc2OC)cc1Cl)C(F)(F)F"
measured_attribute = "IC50"
recorded_result = 95.5

[[record]]
smiles_notation = "Cc1cc(C(=O)NS(C)(=O)=O)c(F)cc1-c1cnc(-c2ccc(Cl)c(Cl)c2)c(Cl)c1"
measured_attribute = "IC50"
recorded_result = 167

[[record]]
smiles_notation = "Cc1cc(C(=O)NS(C)(=O)=O)c(F)cc1-c1ccc(Cl)c(C(F)(F)F)c1"
measured_attribute = "IC50"
recorded_result = 618

[[record]]
smiles_notation = "COc1cc(C(=O)NS(C)(=O)=O)c(F)cc1-c1cnc(Oc2ccc3ccccc3c2Cl)c(Cl)c1"
measured_attribute = "IC50"
recorded_result = 99.3

[[record]]
smiles_notation = "COc1cc(C(=O)NS(C)(=O)=O)c(F)cc1-c1cnc(Oc2ccc(F)cc2F)c(Cl)c1"
measured_attribute = "IC50"
recorded_result = 94

[[record]]
smiles_notation = "Cc1cc(C(=O)NS(C)(=O)=O)c(F)cc1-c1cnc(OC(C)(C)C)c(Cl)c1"
measured_attribute = "IC50"
recorded_result = 156

[[record]]
smiles_notation = "COc1cc(C(=O)NS(C)(=O)=O)c(F)cc1-c1cnc(Oc2cc(Cl)ccc2F)c(Cl)c1"
measured_attribute = "IC50"
recorded_result = 83.6

[[record]]
smiles_notation = "COc1cc(C(=O)NS(C)(=O)=O)c(F)cc1-c1cnc(O[C@@H](C)Cc2ccccc2)c(Cl)c1"
measured_attribute = "IC50"
recorded_result = 83.8

[[record]]
smiles_notation = "COc1cc(C(=O)NS(C)(=O)=O)c(F)cc1-c1cnc(Oc2ccc(Cl)c(Cl)c2)c(Cl)c1"
measured_attribute = "IC50"
recorded_result = 51.5

[[record]]
smiles_notation = "Cc1cc(C(=O)NS(C)(=O)=O)c(F)cc1-c1cnc(Oc2cc(Cl)cc(Cl)c2)c(C(F)F)c1"
measured_attribute = "IC50"
recorded_result = 179

[[record]]
smiles_notation = "CS(=O)(=O)NC(=O)c1cc(OC(F)F)c(-c2cnc(O[C@@H]3C[C@H]4CC[C@H]3C4)c(Cl)c2)cc1F"
measured_attribute = "IC50"
recorded_result = 73.2

[[record]]
smiles_notation = "Cc1cc(C(=O)NS(C)(=O)=O)c(F)cc1-c1ccc2c(c1)OC(F)(F)O2"
measured_attribute = "IC50"
recorded_result = 647

